assay: Selectivity index, ratio of IC50 for dark toxicity in human MIAPaCa2 cells to IC50 for phototoxicity in human MIAPaCa2 cells; type: cell-based, MIA PaCa-2; settings: read-out: Ratio IC50
parameter-measured: selectivity ratio

Ask: Fill in: selectivity ratio of C=Cc1c(C)c2cc3nc(c(CC(=O)O)c4[nH]c(cc5nc(cc1[nH]2)C(C)=C5CC)c(C)c4C(=O)O)C(CCC(=O)O)C3C (stereo not drawn) is ___
Result: 5.61

Ask: Please answer likewise for C=Cc1c(C)c2cc3nc(c(CC(=O)OC)c4[nH]c(cc5nc(cc1[nH]2)C(C)=C5CC)c(C)c4C(=O)NCCCNC(=O)CCCC(=O)Oc1ccc(/C=C/C(=O)CC(=O)/C=C/c2ccc(O)c(OC)c2)cc1OC)C(CCC(=O)OC)C3C (stereo not drawn)
Result: 47.6

Ask: Please answer likewise for C=Cc1c(C)c2cc3nc(c(CC(=O)OC)c4[nH]c(cc5nc(cc1[nH]2)C(C)=C5CC)c(C)c4C(=O)NCCCCCCNC(=O)CCCC(=O)Oc1ccc(/C=C/C(=O)CC(=O)/C=C/c2ccc(O)c(OC)c2)cc1OC)C(CCC(=O)OC)C3C (stereo not drawn)
Result: 5.6

---

test: Dark toxicity in human MIAPaCa2 cells assessed as reduction in cell viability after 72 hrs by MTT assay; type: cell-based, MIA PaCa-2
Provide the recorded IC50 at 72 h for the entries that follow.
Quick reminder: number only, in µM, skip the unit.

Ask: Fill in: IC50 at 72 h of C=Cc1c(C)c2cc3nc(c(CC(=O)O)c4[nH]c(cc5nc(cc1[nH]2)C(C)=C5CC)c(C)c4C(=O)O)C(CCC(=O)O)C3C (stereo not given) is ___
Result: 89

Ask: Please answer likewise for C=Cc1c(C)c2cc3nc(c(CC(=O)OC)c4[nH]c(cc5nc(cc1[nH]2)C(C)=C5CC)c(C)c4C(=O)NCCCCCCNC(=O)CCCC(=O)Oc1ccc(/C=C/C(=O)CC(=O)/C=C/c2ccc(O)c(OC)c2)cc1OC)C(CCC(=O)OC)C3C (stereo not given)
Result: 265

Ask: Please answer likewise for C=Cc1c(C)c2cc3nc(c(CC(=O)OC)c4[nH]c(cc5nc(cc1[nH]2)C(C)=C5CC)c(C)c4C(=O)NCCOCCOCCNC(=O)CCCC(=O)Oc1ccc(/C=C/C(=O)CC(=O)/C=C/c2ccc(O)c(OC)c2)cc1OC)C(CCC(=O)OC)C3C (stereo not given)
Result: 83

Ask: Please answer likewise for C=Cc1c(C)c2cc3nc(c(CC(=O)OC)c4[nH]c(cc5nc(cc1[nH]2)C(C)=C5CC)c(C)c4C(=O)NCCCNC(=O)CCCC(=O)Oc1ccc(/C=C/C(=O)CC(=O)/C=C/c2ccc(O)c(OC)c2)cc1OC)C(CCC(=O)OC)C3C (stereo not given)
Result: 200
